- assayTarget: T1, human IgG1 (human, UniProt P01857-1 1-330 = IgG part)
- T1 construct: Calbiochem; human plasma IgG1 in anisotropy studies, myeloma-derived (cat. 400120) in batch/column studies; also called hIgG1
- T1 sequence (P01857 other isoform, or with tags, fused parts or gaps): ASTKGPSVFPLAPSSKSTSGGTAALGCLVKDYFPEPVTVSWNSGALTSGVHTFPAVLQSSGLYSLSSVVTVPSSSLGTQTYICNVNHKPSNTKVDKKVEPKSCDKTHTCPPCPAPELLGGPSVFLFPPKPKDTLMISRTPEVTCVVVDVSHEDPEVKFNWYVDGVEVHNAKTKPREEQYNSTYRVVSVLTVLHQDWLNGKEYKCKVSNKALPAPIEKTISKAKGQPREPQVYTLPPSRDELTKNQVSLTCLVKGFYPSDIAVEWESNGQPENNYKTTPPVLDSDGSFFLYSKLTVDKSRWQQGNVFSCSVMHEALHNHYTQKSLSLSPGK
- procedureText: fluorescence anisotropy; pH 5.7, 0.15 M NaCl
Positions of bridges follow the written chain, without caps; N, C: chain ends.
measurementName: Kd (nM)

# binder, measurementName, measuredResult
measured = [
    ("Ac-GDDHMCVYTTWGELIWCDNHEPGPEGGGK-NH2 (disulfide 6-17 (inferred), Synthetic disulfide-cyclised peptide) [DX249]", "Kd", 840),
]
